Test system: VDR:RXRa (NR concentration 270 nM, RXRa partner concentration 90 nM)
Assay: PBM binding z-score (relative to random genomic background probes); higher = stronger binding; sequences stand for … in GC…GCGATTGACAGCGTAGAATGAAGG
Listing of recorded PBM binding z-score by entry.
outcome.measure: PBM binding z-score

[[record]]
chain_sequence = "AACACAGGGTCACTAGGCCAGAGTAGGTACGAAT"
system_name = "VDR:RXRa (NR concentration 270 nM, RXRa partner concentration 90 nM)"
outcome_measure = "PBM binding z-score"
quantitative_readout = 3.96

[[record]]
chain_sequence = "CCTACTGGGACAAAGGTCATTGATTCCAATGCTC"
system_name = "VDR:RXRa (NR concentration 270 nM, RXRa partner concentration 90 nM)"
outcome_measure = "PBM binding z-score"
quantitative_readout = 4.67

[[record]]
chain_sequence = "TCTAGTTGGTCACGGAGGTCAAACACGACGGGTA"
system_name = "VDR:RXRa (NR concentration 270 nM, RXRa partner concentration 90 nM)"
outcome_measure = "PBM binding z-score"
quantitative_readout = 6.21

[[record]]
chain_sequence = "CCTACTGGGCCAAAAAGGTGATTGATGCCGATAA"
system_name = "VDR:RXRa (NR concentration 270 nM, RXRa partner concentration 90 nM)"
outcome_measure = "PBM binding z-score"
quantitative_readout = -0.0906

[[record]]
chain_sequence = "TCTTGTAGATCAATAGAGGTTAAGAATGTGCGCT"
system_name = "VDR:RXRa (NR concentration 270 nM, RXRa partner concentration 90 nM)"
outcome_measure = "PBM binding z-score"
quantitative_readout = 1.27

[[record]]
chain_sequence = "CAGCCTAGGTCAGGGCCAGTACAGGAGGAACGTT"
system_name = "VDR:RXRa (NR concentration 270 nM, RXRa partner concentration 90 nM)"
outcome_measure = "PBM binding z-score"
quantitative_readout = 0.635

[[record]]
chain_sequence = "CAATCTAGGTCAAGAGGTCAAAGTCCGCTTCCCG"
system_name = "VDR:RXRa (NR concentration 270 nM, RXRa partner concentration 90 nM)"
outcome_measure = "PBM binding z-score"
quantitative_readout = 6.23

[[record]]
chain_sequence = "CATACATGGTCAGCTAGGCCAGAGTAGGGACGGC"
system_name = "VDR:RXRa (NR concentration 270 nM, RXRa partner concentration 90 nM)"
outcome_measure = "PBM binding z-score"
quantitative_readout = -0.459

[[record]]
chain_sequence = "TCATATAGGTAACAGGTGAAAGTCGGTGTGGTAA"
system_name = "VDR:RXRa (NR concentration 270 nM, RXRa partner concentration 90 nM)"
outcome_measure = "PBM binding z-score"
quantitative_readout = 0.96

[[record]]
chain_sequence = "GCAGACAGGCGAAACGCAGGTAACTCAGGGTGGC"
system_name = "VDR:RXRa (NR concentration 270 nM, RXRa partner concentration 90 nM)"
outcome_measure = "PBM binding z-score"
quantitative_readout = -0.853

[[record]]
chain_sequence = "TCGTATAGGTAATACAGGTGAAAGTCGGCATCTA"
system_name = "VDR:RXRa (NR concentration 270 nM, RXRa partner concentration 90 nM)"
outcome_measure = "PBM binding z-score"
quantitative_readout = 0.991

[[record]]
chain_sequence = "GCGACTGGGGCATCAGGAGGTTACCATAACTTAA"
system_name = "VDR:RXRa (NR concentration 270 nM, RXRa partner concentration 90 nM)"
outcome_measure = "PBM binding z-score"
quantitative_readout = 0.558

[[record]]
chain_sequence = "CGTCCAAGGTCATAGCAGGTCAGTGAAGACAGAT"
system_name = "VDR:RXRa (NR concentration 270 nM, RXRa partner concentration 90 nM)"
outcome_measure = "PBM binding z-score"
quantitative_readout = 5.93

[[record]]
chain_sequence = "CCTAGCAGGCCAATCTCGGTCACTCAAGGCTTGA"
system_name = "VDR:RXRa (NR concentration 270 nM, RXRa partner concentration 90 nM)"
outcome_measure = "PBM binding z-score"
quantitative_readout = -0.37

[[record]]
chain_sequence = "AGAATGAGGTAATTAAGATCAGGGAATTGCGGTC"
system_name = "VDR:RXRa (NR concentration 270 nM, RXRa partner concentration 90 nM)"
outcome_measure = "PBM binding z-score"
quantitative_readout = 0.215

[[record]]
chain_sequence = "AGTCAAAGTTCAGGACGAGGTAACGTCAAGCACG"
system_name = "VDR:RXRa (NR concentration 270 nM, RXRa partner concentration 90 nM)"
outcome_measure = "PBM binding z-score"
quantitative_readout = 3.07

[[record]]
chain_sequence = "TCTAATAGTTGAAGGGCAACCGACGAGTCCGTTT"
system_name = "VDR:RXRa (NR concentration 270 nM, RXRa partner concentration 90 nM)"
outcome_measure = "PBM binding z-score"
quantitative_readout = 0.759

[[record]]
chain_sequence = "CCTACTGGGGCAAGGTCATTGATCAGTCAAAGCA"
system_name = "VDR:RXRa (NR concentration 270 nM, RXRa partner concentration 90 nM)"
outcome_measure = "PBM binding z-score"
quantitative_readout = 3.59

[[record]]
chain_sequence = "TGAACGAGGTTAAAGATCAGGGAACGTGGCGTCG"
system_name = "VDR:RXRa (NR concentration 270 nM, RXRa partner concentration 90 nM)"
outcome_measure = "PBM binding z-score"
quantitative_readout = 1.8

[[record]]
chain_sequence = "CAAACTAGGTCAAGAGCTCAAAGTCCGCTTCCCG"
system_name = "VDR:RXRa (NR concentration 270 nM, RXRa partner concentration 90 nM)"
outcome_measure = "PBM binding z-score"
quantitative_readout = 1.29

[[record]]
chain_sequence = "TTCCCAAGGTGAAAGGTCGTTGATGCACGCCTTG"
system_name = "VDR:RXRa (NR concentration 270 nM, RXRa partner concentration 90 nM)"
outcome_measure = "PBM binding z-score"
quantitative_readout = 3.35

[[record]]
chain_sequence = "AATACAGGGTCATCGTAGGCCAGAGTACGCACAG"
system_name = "VDR:RXRa (NR concentration 270 nM, RXRa partner concentration 90 nM)"
outcome_measure = "PBM binding z-score"
quantitative_readout = 5.37

[[record]]
chain_sequence = "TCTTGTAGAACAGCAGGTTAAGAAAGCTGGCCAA"
system_name = "VDR:RXRa (NR concentration 270 nM, RXRa partner concentration 90 nM)"
outcome_measure = "PBM binding z-score"
quantitative_readout = 0.0158

[[record]]
chain_sequence = "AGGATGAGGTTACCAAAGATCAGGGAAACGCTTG"
system_name = "VDR:RXRa (NR concentration 270 nM, RXRa partner concentration 90 nM)"
outcome_measure = "PBM binding z-score"
quantitative_readout = 1.45

[[record]]
chain_sequence = "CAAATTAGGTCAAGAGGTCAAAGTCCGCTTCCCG"
system_name = "VDR:RXRa (NR concentration 270 nM, RXRa partner concentration 90 nM)"
outcome_measure = "PBM binding z-score"
quantitative_readout = 6.35

[[record]]
chain_sequence = "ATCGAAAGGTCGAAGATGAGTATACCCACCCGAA"
system_name = "VDR:RXRa (NR concentration 270 nM, RXRa partner concentration 90 nM)"
outcome_measure = "PBM binding z-score"
quantitative_readout = 2.36


* * *

Tested on: RARg homodimer (NR concentration 270 nM)
Assay: PBM binding z-score (relative to random genomic background probes); higher = stronger binding; sequences stand for … in GC…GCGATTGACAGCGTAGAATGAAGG
Records here are stratified by PBM binding z-score; strata: 1: < 0.3; 2: ≥ 0.3 and < 2; 3: ≥ 2

[[record]]
chain_sequence = "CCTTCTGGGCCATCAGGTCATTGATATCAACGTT"
system_name = "RARg homodimer (NR concentration 270 nM)"
label = 3

[[record]]
chain_sequence = "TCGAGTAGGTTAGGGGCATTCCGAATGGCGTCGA"
system_name = "RARg homodimer (NR concentration 270 nM)"
label = 1

[[record]]
chain_sequence = "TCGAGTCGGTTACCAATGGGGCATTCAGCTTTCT"
system_name = "RARg homodimer (NR concentration 270 nM)"
label = 1

[[record]]
chain_sequence = "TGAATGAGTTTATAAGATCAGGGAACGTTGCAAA"
system_name = "RARg homodimer (NR concentration 270 nM)"
label = 2

[[record]]
chain_sequence = "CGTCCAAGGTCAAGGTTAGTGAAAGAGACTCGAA"
system_name = "RARg homodimer (NR concentration 270 nM)"
label = 3

[[record]]
chain_sequence = "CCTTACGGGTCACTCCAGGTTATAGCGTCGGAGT"
system_name = "RARg homodimer (NR concentration 270 nM)"
label = 3

[[record]]
chain_sequence = "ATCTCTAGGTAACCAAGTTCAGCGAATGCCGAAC"
system_name = "RARg homodimer (NR concentration 270 nM)"
label = 2

[[record]]
chain_sequence = "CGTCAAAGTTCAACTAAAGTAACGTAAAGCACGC"
system_name = "RARg homodimer (NR concentration 270 nM)"
label = 3

[[record]]
chain_sequence = "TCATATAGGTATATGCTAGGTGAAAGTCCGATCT"
system_name = "RARg homodimer (NR concentration 270 nM)"
label = 1

[[record]]
chain_sequence = "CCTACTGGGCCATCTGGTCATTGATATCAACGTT"
system_name = "RARg homodimer (NR concentration 270 nM)"
label = 2

[[record]]
chain_sequence = "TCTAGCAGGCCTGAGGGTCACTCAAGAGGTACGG"
system_name = "RARg homodimer (NR concentration 270 nM)"
label = 2

